studySystem: α2A (Homo sapiens, UniProt P08913)
Sequence (P08913 whole entry): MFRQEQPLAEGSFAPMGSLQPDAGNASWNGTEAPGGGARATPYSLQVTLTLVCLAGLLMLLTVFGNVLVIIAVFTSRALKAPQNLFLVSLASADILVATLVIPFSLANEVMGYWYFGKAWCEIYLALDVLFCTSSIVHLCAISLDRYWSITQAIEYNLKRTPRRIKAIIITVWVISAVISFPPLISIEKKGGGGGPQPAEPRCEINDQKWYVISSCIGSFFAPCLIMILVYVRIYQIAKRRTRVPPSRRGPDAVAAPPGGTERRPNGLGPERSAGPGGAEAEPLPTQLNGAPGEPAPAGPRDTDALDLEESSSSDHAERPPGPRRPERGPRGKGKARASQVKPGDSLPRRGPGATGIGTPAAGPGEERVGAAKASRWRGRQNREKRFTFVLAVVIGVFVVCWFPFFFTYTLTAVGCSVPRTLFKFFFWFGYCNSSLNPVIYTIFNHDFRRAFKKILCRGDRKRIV
experiment: FLIPR intracellular calcium assay, α2A
Type: cell-based
conditionDescription: value in parentheses; relative to a standard full agonist
Measured α2A relative efficacy, listed per entry for reference.
I'd appreciate a reply containing only the number, no unit.

compound: C#CC(CCC)NC1=NCCO1 (stereo not drawn)
α2A relative efficacy: 0.44

compound: C#CC(C)NC1=NCCO1 (stereo not drawn)
α2A relative efficacy: 0.20

compound: C#CC(NC1=NCCO1)C1CC1 (stereo not drawn)
α2A relative efficacy: 0.41

Query: # get_value(readout='α2A relative efficacy', item= N#CC(NC1=NCCO1)c1ccccc1 (stereo not drawn) )
Response: 0.42

Query: # get_value(readout='α2A relative efficacy', item= C#CC(CC)NC1=NCCO1 (stereo not drawn) )
Response: 0.74

Query: # get_value(readout='α2A relative efficacy', item= C#CC(NC1=NCCO1)c1cccc(Cl)c1 (stereo not drawn) )
Response: 0.88

Query: # get_value(readout='α2A relative efficacy', item= `C#C[C@H](NC1=NCCO1)C(C)C` )
Response: 0.85

Query: # get_value(readout='α2A relative efficacy', item= C#CC(NC1=NCCO1)c1cccc(F)c1F (stereo not drawn) )
Response: 0.79

* * *

studySystem: α2C (Homo sapiens)
Sequence (P18825 whole entry): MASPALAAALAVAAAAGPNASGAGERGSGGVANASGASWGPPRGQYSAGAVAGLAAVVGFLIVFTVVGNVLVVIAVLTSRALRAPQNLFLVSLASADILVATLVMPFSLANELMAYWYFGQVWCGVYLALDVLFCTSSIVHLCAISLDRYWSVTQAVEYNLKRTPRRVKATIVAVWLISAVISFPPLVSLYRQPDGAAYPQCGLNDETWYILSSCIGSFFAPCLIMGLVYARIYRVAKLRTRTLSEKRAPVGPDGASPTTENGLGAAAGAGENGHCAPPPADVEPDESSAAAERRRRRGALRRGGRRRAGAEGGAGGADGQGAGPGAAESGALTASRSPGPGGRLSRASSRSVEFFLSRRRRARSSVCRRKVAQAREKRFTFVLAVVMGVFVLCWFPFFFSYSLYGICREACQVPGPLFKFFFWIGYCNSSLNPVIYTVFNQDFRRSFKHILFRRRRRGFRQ
experiment: FLIPR intracellular calcium assay, α2C
conditionDescription: FLIPR, fluo-3 calcium; NA = not active; read-out: α2C potency (EC50)
Measured EC50, listed per entry for reference.
Just the number please, in nM, no unit attached.

compound: C#CC(NC1=NCCO1)C1CC1 (stereo not drawn)
unitsLabel: nM
EC50: 127
--
compound: N#CC(NC1=NCCO1)c1ccccc1 (stereo not drawn)
unitsLabel: nM
EC50: 158

Now for the compound whose EC50 we want.
Query: Give recorded EC50 with α2C (Homo sapiens) for the following compound: C#CC(CCC)NC1=NCCO1 (stereo not drawn)
Response: 65

* * *

studySystem: α1A (UniProt P35348)
Sequence (P35348 1-466): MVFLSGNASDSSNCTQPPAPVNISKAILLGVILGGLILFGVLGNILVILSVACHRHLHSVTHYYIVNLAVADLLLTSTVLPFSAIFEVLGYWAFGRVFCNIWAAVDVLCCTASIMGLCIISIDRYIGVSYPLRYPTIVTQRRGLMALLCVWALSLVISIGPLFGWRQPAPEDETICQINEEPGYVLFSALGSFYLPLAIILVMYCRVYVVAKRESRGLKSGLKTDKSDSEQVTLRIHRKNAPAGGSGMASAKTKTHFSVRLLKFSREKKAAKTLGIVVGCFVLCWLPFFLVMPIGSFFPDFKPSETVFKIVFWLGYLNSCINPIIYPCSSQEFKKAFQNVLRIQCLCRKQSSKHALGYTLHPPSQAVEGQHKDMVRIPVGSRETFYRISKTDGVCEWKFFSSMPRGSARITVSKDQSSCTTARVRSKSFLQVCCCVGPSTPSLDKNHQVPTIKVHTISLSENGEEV
experiment: FLIPR intracellular calcium assay, α1A
conditionDescription: FLIPR, fluo-3 calcium; NA = not active; read-out: α1A potency (EC50)
reportedEndpoint: EC50 (µM)
Just the number please, in µM, no unit attached.

Query: # get_value(readout='EC50', item= `C#C[C@H](NC1=NCCO1)C(C)C` )
Response: 1.2

Query: # get_value(readout='EC50', item= C#CC(CC(C)C)NC1=NCCO1 (centres unmarked) )
Response: 7.37

Query: # get_value(readout='EC50', item= C#CC(NC1=NCCO1)c1ccccc1Br (centres unmarked) )
Response: 1.65

Query: # get_value(readout='EC50', item= N#CC(NC1=NCCO1)c1ccccc1 (centres unmarked) )
Response: 1.14

* * *

Measured α2B relative efficacy, listed per entry for reference.
studySystem: α2B (Homo sapiens, UniProt P18089)
Sequence (P18089 whole entry): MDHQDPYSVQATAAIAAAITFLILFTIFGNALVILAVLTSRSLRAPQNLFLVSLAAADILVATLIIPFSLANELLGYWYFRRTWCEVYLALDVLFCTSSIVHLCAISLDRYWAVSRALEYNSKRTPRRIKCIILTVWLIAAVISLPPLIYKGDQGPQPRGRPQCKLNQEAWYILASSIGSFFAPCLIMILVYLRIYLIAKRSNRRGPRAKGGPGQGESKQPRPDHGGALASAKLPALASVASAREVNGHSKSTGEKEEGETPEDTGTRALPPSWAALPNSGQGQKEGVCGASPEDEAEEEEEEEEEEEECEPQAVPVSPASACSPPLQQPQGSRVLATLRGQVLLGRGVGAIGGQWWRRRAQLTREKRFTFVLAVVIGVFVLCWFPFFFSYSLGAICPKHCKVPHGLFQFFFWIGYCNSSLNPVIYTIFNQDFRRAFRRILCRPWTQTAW
experiment: FLIPR intracellular calcium assay, α2B
Assay type: cell-based
conditionDescription: value in parentheses; relative to a standard full agonist
I'd appreciate a reply containing only the number, no unit.

compound: C#CC(CC)NC1=NCCO1 (centres unmarked)
α2B relative efficacy: 0.82

Query: # get_value(readout='α2B relative efficacy', item= N#CC(NC1=NCCO1)c1ccccc1 (centres unmarked) )
Response: 0.56

Query: # get_value(readout='α2B relative efficacy', item= C#CC(NC1=NCCO1)c1cccc(F)c1F (centres unmarked) )
Response: 0.50

Query: # get_value(readout='α2B relative efficacy', item= `C#C[C@H](NC1=NCCO1)C(C)C` )
Response: 0.88

Query: # get_value(readout='α2B relative efficacy', item= C#CC(CC(C)C)NC1=NCCO1 (centres unmarked) )
Response: 0.48

Query: # get_value(readout='α2B relative efficacy', item= C#CC(NC1=NCCO1)c1cccc(Cl)c1 (centres unmarked) )
Response: 0.56

Query: # get_value(readout='α2B relative efficacy', item= C#CC(C)NC1=NCCO1 (centres unmarked) )
Response: 0.77

* * *

studySystem: α2B (Homo sapiens, UniProt P18089)
experiment: FLIPR intracellular calcium assay, α2B
Assay type: cell-based
conditionDescription: FLIPR, fluo-3 calcium; NA = not active; read-out: α2B potency (EC50)
Measured EC50, listed per entry for reference.
Just the number please, in nM, no unit attached.

Solved entries:
compound: C#CC(NC1=NCCO1)c1cccc(Cl)c1 (stereo not shown)
readoutNumber: 218
//
compound: C#CC(NC1=NCCO1)c1cccc(F)c1F (stereo not shown)
readoutNumber: 25.9
//
compound: C#CC(NC1=NCCO1)C1CC1 (stereo not shown)
readoutNumber: 354

Now for the compound whose EC50 we want.
Query: Give recorded EC50 with α2B (Homo sapiens, UniProt P18089) for the following compound: C#CC(C)NC1=NCCO1 (stereo not shown)
Response: 413

* * *

Measured α2C relative efficacy, listed per entry for reference.
studySystem: α2C (Homo sapiens)
experiment: FLIPR intracellular calcium assay, α2C
Format: cell-based
conditionDescription: value in parentheses; relative to a standard full agonist
I'd appreciate a reply containing only the number, no unit.

Solved entries:
compound: C#CC(CC)NC1=NCCO1 (stereo not shown)
readoutNumber: 0.87

compound: C#CC(NC1=NCCO1)c1ccccc1Br (stereo not shown)
readoutNumber: 0.81

Now for the compound whose α2C relative efficacy we want.
Query: # get_value(readout='α2C relative efficacy', item= `C#C[C@H](NC1=NCCO1)C(C)C` )
Response: 1.02
